# measurement.target: Hck (UniProt P08631)
# Sequence (P08631 whole entry, looked up): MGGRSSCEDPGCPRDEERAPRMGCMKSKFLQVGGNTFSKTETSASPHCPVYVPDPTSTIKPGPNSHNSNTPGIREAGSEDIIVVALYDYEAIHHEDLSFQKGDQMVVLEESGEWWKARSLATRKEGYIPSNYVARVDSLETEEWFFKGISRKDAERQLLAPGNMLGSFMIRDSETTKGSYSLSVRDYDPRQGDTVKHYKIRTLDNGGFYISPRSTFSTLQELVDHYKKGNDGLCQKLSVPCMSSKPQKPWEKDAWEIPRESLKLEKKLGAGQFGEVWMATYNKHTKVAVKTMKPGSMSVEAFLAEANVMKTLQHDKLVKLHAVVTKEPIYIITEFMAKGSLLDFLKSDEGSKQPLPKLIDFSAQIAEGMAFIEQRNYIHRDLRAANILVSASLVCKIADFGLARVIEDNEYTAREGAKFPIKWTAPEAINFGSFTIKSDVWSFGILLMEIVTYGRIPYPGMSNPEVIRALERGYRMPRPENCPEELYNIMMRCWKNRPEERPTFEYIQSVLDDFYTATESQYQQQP
# procedure.summary: phosphorylation enrichment, bacterial display (enrichment ratio); higher = better substrate or ligand; peptides without Tyr show the background;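 note: 11-residue human phosphosite peptides and single-mutation variants displayed on the E. coli surface, counted by deep sequencing, each peptide's frequency after selection divided by its frequency in the unselected input library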;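 note: frequency after pTyr selection over input frequency; kinase dosed for 20-30% of maximal phosphorylation in three min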
Field: phosphorylation enrichment. Provide a value for each of the sequences that follow.

// phosphorylation enrichment lookup, key: VQEDIYDEFVE [ALDH2_Y332]
1.15

// phosphorylation enrichment lookup, key: TEYSQYMRRKN [MAX_Y73_I71S]
0.562

// phosphorylation enrichment lookup, key: SVEVPYEPPEV [TP53_Y220_V217E]
0.596

// phosphorylation enrichment lookup, key: LNPLFYSLRNK [OR5R1_Y290_I289F]
0.475

// phosphorylation enrichment lookup, key: EASEQHLTKAS [NRCAM_Y739_Y739H]
0.447

// phosphorylation enrichment lookup, key: RRNEIYEIKVD [LGR5_Y387_H383R]
5.36

// phosphorylation enrichment lookup, key: RIVEIYSRSLQ [GCH1_Y175_R178S]
2.61

// phosphorylation enrichment lookup, key: APGDAYGDAGF [SYP_Y250_YF]
0.566

// phosphorylation enrichment lookup, key: RPSRQYATLDV [SCAMP3_Y35]
0.376

// phosphorylation enrichment lookup, key: FESPRYLQVHI [FANCA_Y488]
0.564

// phosphorylation enrichment lookup, key: AFDNLYFWDQD [ERBB2_Y1221_YF]
4.26

// phosphorylation enrichment lookup, key: AVNNFYAAKKT [CCDC178_Y422_D420N]
0.428

// phosphorylation enrichment lookup, key: RIPFRYPKEFQ [IDS_Y234_H229R]
1.07

// phosphorylation enrichment lookup, key: QEGPEYWDQNT [HLA-A_Y83_E87N]
0.632

// phosphorylation enrichment lookup, key: VDEVLYEDSSA [MTHFS_Y197_T202A]
0.716

// phosphorylation enrichment lookup, key: DVVKDCAFVHM [RBM14_Y114_Y114C]
0.486

// phosphorylation enrichment lookup, key: DKATEYIQFVR [MAX_Y70_M74V_YF]
0.636

// phosphorylation enrichment lookup, key: GHGEEYPVAGA [NOTCH3_Y2221_A2223V]
0.421

// phosphorylation enrichment lookup, key: HPFNSYTFPRL [PAK5_Y316_S312P_YF]
0.474

// phosphorylation enrichment lookup, key: REAAAYPHGRL [AGXT_Y297_L298P]
0.404

// phosphorylation enrichment lookup, key: MPAVTYTPAMR [MEGF10_Y895]
0.415

// phosphorylation enrichment lookup, key: LSDGPYSNSFE [EPOR_Y485_P488S_YF]
0.915

// phosphorylation enrichment lookup, key: EEGRVYVYRLS [ITGAE_Y549]
0.548

// phosphorylation enrichment lookup, key: TEDPEYDVQSK [PTCHD3_Y335]
0.669

// phosphorylation enrichment lookup, key: VKMLEYLGKDV [CASP5_Y74]
0.491

// phosphorylation enrichment lookup, key: PNKAVYTKMMT [G6PD_Y401_E398K]
0.437

// phosphorylation enrichment lookup, key: RARIRYAQEHD [NSD1_Y1987]
0.85

// phosphorylation enrichment lookup, key: KDQGGYTMHQD [MAPT_Y29]
0.484

// phosphorylation enrichment lookup, key: MDQAEYQAKIQ [DHX58_Y518_R523Q]
0.555

// phosphorylation enrichment lookup, key: ADCRFYTFPQM [GAMT_Y223_A224T_YF]
0.534

// phosphorylation enrichment lookup, key: EVESPYEVHDF [GIGYF2_Y1168_YF]
1.44

// phosphorylation enrichment lookup, key: SLEKSYKLPDG [ACTA1_Y242_E243K]
0.393

// phosphorylation enrichment lookup, key: KNNSIYVLANI [VNN1_Y134_V136L]
1.15

// phosphorylation enrichment lookup, key: SSFPDYLAAVD [GLB1_Y154_D151Y_YF]
0.576

// phosphorylation enrichment lookup, key: TKGMIYGGGGG [PSME1_Y249]
0.556

// phosphorylation enrichment lookup, key: EEGNPSFSSAR [MCCC2_Y520_Y520S_YF]
0.395

// phosphorylation enrichment lookup, key: VATRWYRSPEP [CDKL5_Y177_L182P]
0.431

// phosphorylation enrichment lookup, key: HSGIFYKPESL [L2HGDH_Y103_YF]
0.704

// phosphorylation enrichment lookup, key: SGVSFYINLCQ [IGF2R_Y2025_N2020S_YF]
0.481

// phosphorylation enrichment lookup, key: SREALYNEMDP [CACNA1A_Y794]
0.834

// phosphorylation enrichment lookup, key: GDKENYGLPQP [BUB1_Y538_N534D]
0.469

// phosphorylation enrichment lookup, key: INITIYGKTFH [EFHC1_Y177_R182H]
0.544

// phosphorylation enrichment lookup, key: SDVWSYGVTMW [ZAP70_Y525]
0.695

// phosphorylation enrichment lookup, key: KKLEVYQSIAD [MYBPC3_Y548]
1.08

// phosphorylation enrichment lookup, key: SSEFHYVGGFF [CTSC_Y347_YF]
0.544

// phosphorylation enrichment lookup, key: GHMFAYDWISI [BEST1_Y227_L224M_YF]
1.78

// phosphorylation enrichment lookup, key: GLAELYEYQKK [CKAP5_Y1854_K1857Q]
0.857

// phosphorylation enrichment lookup, key: RGLQVYHKRNA [LRP2_Y2010_R2012K]
0.59

// phosphorylation enrichment lookup, key: SRLSAYPALEG [CD5_Y465_H461R]
0.436

// phosphorylation enrichment lookup, key: `IKETHYMVDRC`
0.461

// phosphorylation enrichment lookup, key: MEIHAYLKLLE [LMNA_Y376_R377L]
0.574

// phosphorylation enrichment lookup, key: LLREWYLPDPY [SIX3_Y225_Q227P]
0.484

// phosphorylation enrichment lookup, key: VNKIFHPDFIV [LIG3_Y768_Y768H_YF]
0.39

// phosphorylation enrichment lookup, key: ENRKYYMDLKE [PURA_Y156]
0.543

// phosphorylation enrichment lookup, key: ALLVFYAATIA [SLC20A2_Y187_P184L]
0.513

// phosphorylation enrichment lookup, key: GQETSYIEDNC [PAH_Y24]
0.666

// phosphorylation enrichment lookup, key: QTEGEYSSLEH [IDH3B_Y171]
1.04

FYI, the data here is from the supplement of paper PMC10065799.
